Measured GI50 of individual entries
# Test system: HOP-62 NSCLC
# test-method-notes: NCI tumour cell line growth inhibition, 48 h

[[record]]
compound = "O=S(=O)(c1ccc(NC(=S)NCc2cccnc2)cc1)N1CCCCC1"
system_name = "HOP-62 NSCLC"
measured_parameter = "GI50"
recorded_result = "> 100000 nM"


API: the following record is the query input.
## Input Requested field: GI50. Item: "NC(=O)[C@H]1CCN(c2ncnc(N)c2F)C[C@@H]1N1CCC[C@@H](Nc2cc(Cl)cc(C(F)(F)F)c2)C1=O"
## Output 22000 nM

###

Measured TGI of individual entries
# Tested on: HCT-15 colon
# test-method-notes: NCI tumour cell line growth inhibition, 48 h
API: value field is a number in µM; no unit string.

[[record]]
molecule = "CC1(C)CCC2(C(=O)OC3OC(CO)C(O)C(O)C3O)CC[C@]3(C)C(=CCC4C5(C)CC[C@H](OC6OC(C(=O)O)C(O)C(O)C6O)C(C)(C)C5CCC43C)C2C1 (stereo partly specified)"
recorded_result = 13.3


## Input Requested field: TGI. Item: "COc1ccc(-c2ccc(-c3ccc(C(=N)N)nc3)s2)cc1"
## Output 2.7

## Input Same question for "Cc1nc2sc(CCl)nn2c(=O)c1Cl" please.
## Output 23.8
